Tested on: Raji
test.method.notes: Antiproliferative activity against human Raji cells assessed as inhibition of cell growth incubated for 72 hrs by MTT assay
Type: functional, cell-based
Item-by-item account of IC50

{"columns": ["molecule.smiles", "IC50 [µM]"],
 "data": [
  ["CO[C@H]1CC(=O)O[C@H]1[C@H](OC(C)=O)[C@H](COC(=O)c1ccccc1)OC(C)=O", 11.2],
  ["O=C1C[C@@H](O)[C@@H]([C@@H](O)[C@H](O)CO)O1", 2.64],
  ["O=C1C[C@H]2O[C@@H]3CO[C@@H]3[C@H]2O1", 15.7],
  ["C=C[C@@H](O)[C@@H]1OC(=O)C[C@@H]1OC", 18.6],
  ["CO[C@H]1CC(=O)O[C@H]1[C@H](OC(=O)c1ccccc1)[C@@H](COC(=O)c1ccccc1)OC(=O)c1ccccc1", 17]
]}

###

We begin with a simple list: items and their reported IC50.
System: MDA-MB-231
test.method.notes: Antiproliferative activity against human MDA-MB-231 cells assessed as inhibition of cell growth incubated for 72 hrs by MTT assay
Format: functional, cell-based
experimental.conditions: MDA-MB-231, 72 h

{"columns": ["molecule.smiles", "measured.target", "IC50"],
 "data": [
  ["CO[C@@H]1CC(=O)O[C@@H]1[C@@H](O)[C@H](O)COC(=O)c1ccccc1", "MDA-MB-231", "31.2 µM"],
  ["C=C[C@@H](O)[C@@H]1OC(=O)C[C@@H]1OC", "MDA-MB-231", "11.9 µM"],
  ["CO[C@@H]1CC(=O)O[C@@H]1[C@@H](OC(C)=O)[C@H](COC(=O)c1ccccc1)OC(C)=O", "MDA-MB-231", "21.7 µM"],
  ["O=C1C[C@@H]2O[C@@H](CI)[C@@H](O)[C@@H]2O1", "MDA-MB-231", "17.7 µM"],
  ["CO[C@H]1CC(=O)O[C@H]1[C@H](OC(=O)c1ccccc1)[C@@H](COC(=O)c1ccccc1)OC(=O)c1ccccc1", "MDA-MB-231", "23.7 µM"],
  ["CO[C@@H]1CC(=O)O[C@@H]1[C@@H](OC(=O)c1ccccc1)[C@H](COC(=O)c1ccccc1)OC(=O)c1ccccc1", "MDA-MB-231", "13.5 µM"],
  ["C=C[C@H](OCc1ccccc1)[C@H]1OC(=O)C[C@H]1OC", "MDA-MB-231", "12.6 µM"],
  ["C=C[C@@H](OCc1ccccc1)[C@@H]1OC(=O)C[C@@H]1OC", "MDA-MB-231", "42.3 µM"],
  ["CO[C@@H]1CC(=O)O[C@@H]1[C@H]1OC(=O)O[C@H]1COC(=O)c1ccccc1", "MDA-MB-231", "25.8 µM"]
]}

###

System: MDA-MB-231
test.method.notes: Antiproliferative activity against human MDA-MB-231 cells assessed as inhibition of cell growth incubated for 72 hrs by MTT assay
Assay type: functional, cell-based
experimental.conditions: MDA-MB-231, 72 h
# Lookup of reported IC50 keyed by entry
observed.property: IC50 (µM)

{"columns": ["molecule.smiles", "observed.property", "recorded.measurement"],
 "data": [
  ["O=C1C[C@@H]2O[C@@H](CO)[C@@H](O)[C@@H]2O1", "IC50", 30],
  ["O=C1C[C@@H](O)[C@@H]([C@@H](O)[C@@H](O)CO)O1", "IC50", 19.6],
  ["C=C[C@@H](OCc1ccccc1)[C@@H]1OC(=O)C[C@@H]1O", "IC50", 21.3],
  ["CO[C@H]1CC(=O)O[C@H]1[C@H](O)[C@H](O)COC(=O)c1ccccc1", "IC50", 45.2],
  ["CO[C@H]1CC(=O)O[C@H]1[C@H](OC(C)=O)[C@H](COC(=O)c1ccccc1)OC(C)=O", "IC50", 16.1],
  ["C=C[C@H](O)[C@H]1OC(=O)C[C@H]1OC", "IC50", 11.8],
  ["CO[C@H]1CC(=O)O[C@H]1[C@H](OC(C)=O)[C@@H](COC(=O)c1ccccc1)OC(C)=O", "IC50", 13.2],
  ["C=C[C@H](OCc1ccccc1)[C@H]1OC(=O)C[C@H]1O", "IC50", 12.9],
  ["CO[C@@H]1CC(=O)O[C@@H]1[C@@H](O)[C@@H](O)COC(=O)c1ccccc1", "IC50", 27.7],
  ["CO[C@H]1CC(=O)O[C@H]1[C@H](O)[C@@H](O)COC(=O)c1ccccc1", "IC50", 19.9]
]}

###

test.method.notes: Antiproliferative activity against human MRC5 cells assessed as inhibition of cell growth incubated for 72 hrs by MTT assay
Format: toxicity, cell-based

{"columns": ["molecule.smiles", "IC50 at 72 h"],
 "data": [
  ["C=C[C@@H](OCc1ccccc1)[C@@H]1OC(=O)C[C@@H]1O", "> 100 µM"],
  ["CO[C@@H]1CC(=O)O[C@@H]1[C@@H](OC(C)=O)[C@@H](COC(=O)c1ccccc1)OC(C)=O", "> 100 µM"],
  ["O=C1C[C@H]2O[C@@H]3CO[C@@H]3[C@H]2O1", "> 100 µM"]
]}

###

Listing of entries alongside the reported pIC50.
System: Raji
test.method.notes: Antiproliferative activity against human Raji cells assessed as inhibition of cell growth incubated for 72 hrs by MTT assay
Type: functional, cell-based
pIC50: −log10 of the molar value.

{"columns": ["molecule.smiles", "pIC50"],
 "data": [
  ["O=C1C[C@@H]2O[C@@H](CI)[C@@H](O)[C@@H]2O1", 4.58],
  ["CO[C@@H]1CC(=O)O[C@@H]1[C@@H](O)[C@@H](O)COC(=O)c1ccccc1", 4.81],
  ["C=C[C@H](OCc1ccccc1)[C@H]1OC(=O)C[C@H]1OC", 4.46],
  ["CO[C@@H]1CC(=O)O[C@@H]1[C@@H](OC(=O)c1ccccc1)[C@H](COC(=O)c1ccccc1)OC(=O)c1ccccc1", 4.85],
  ["O=C1C[C@@H]2O[C@@H](CO)[C@@H](O)[C@@H]2O1", 4.99],
  ["CO[C@@H]1CC(=O)O[C@@H]1[C@@H](O)[C@H](O)COC(=O)c1ccccc1", 4.71],
  ["C=C[C@H](OCc1ccccc1)[C@H]1OC(=O)C[C@H]1O", 4.46],
  ["C=C[C@@H](OCc1ccccc1)[C@@H]1OC(=O)C[C@@H]1OC", 4.89],
  ["CO[C@@H]1CC(=O)O[C@@H]1[C@H]1OC(=O)O[C@H]1COC(=O)c1ccccc1", 4.67]
]}

###

Tested on: MCF7
test.method.notes: Antiproliferative activity against human MCF7 cells assessed as inhibition of cell growth incubated for 72 hrs by MTT assay
Assay type: functional, cell-based
experimental.conditions: MCF7, 72 h
Each record here notes measured IC50.
observed.property: IC50

{"columns": ["molecule.smiles", "recorded.measurement"],
 "data": [
  ["C=C[C@@H](OCc1ccccc1)[C@@H]1OC(=O)C[C@@H]1O", "9.44 µM"],
  ["O=C1C[C@@H]2O[C@@H](CI)[C@@H](O)[C@@H]2O1", "19.4 µM"],
  ["CO[C@H]1CC(=O)O[C@H]1[C@H](OC(C)=O)[C@H](COC(=O)c1ccccc1)OC(C)=O", "5.21 µM"],
  ["O=C1C[C@@H](O)[C@@H]([C@@H](O)[C@H](O)CO)O1", "0.63 µM"],
  ["CO[C@@H]1CC(=O)O[C@@H]1[C@@H](OC(C)=O)[C@H](COC(=O)c1ccccc1)OC(C)=O", "5.4 µM"],
  ["CO[C@H]1CC(=O)O[C@H]1[C@H](OC(C)=O)[C@@H](COC(=O)c1ccccc1)OC(C)=O", "29.4 µM"],
  ["CO[C@@H]1CC(=O)O[C@@H]1[C@@H](O)[C@H](O)COC(=O)c1ccccc1", "15.6 µM"],
  ["CO[C@H]1CC(=O)O[C@H]1[C@H](O)[C@@H](O)COC(=O)c1ccccc1", "12.8 µM"],
  ["CO[C@@H]1CC(=O)O[C@@H]1[C@@H](O)[C@@H](O)COC(=O)c1ccccc1", "14.4 µM"],
  ["CO[C@@H]1CC(=O)O[C@@H]1[C@@H](OC(C)=O)[C@@H](COC(=O)c1ccccc1)OC(C)=O", "13.5 µM"],
  ["O=C1C[C@@H]2O[C@@H](CO)[C@@H](O)[C@@H]2O1", "4.02 µM"],
  ["O=C1C[C@H]2O[C@@H]3CO[C@@H]3[C@H]2O1", "1.05 µM"],
  ["C=C[C@H](OCc1ccccc1)[C@H]1OC(=O)C[C@H]1O", "19.2 µM"],
  ["CO[C@@H]1CC(=O)O[C@@H]1[C@H]1OC(=O)O[C@H]1COC(=O)c1ccccc1", "4.31 µM"],
  ["C=C[C@@H](O)[C@@H]1OC(=O)C[C@@H]1OC", "9.2 µM"],
  ["O=C1C[C@@H](O)[C@@H]([C@@H](O)[C@@H](O)CO)O1", "19.5 µM"],
  ["CO[C@H]1CC(=O)O[C@H]1[C@H](OC(=O)c1ccccc1)[C@@H](COC(=O)c1ccccc1)OC(=O)c1ccccc1", "1.31 µM"],
  ["C=C[C@@H](OCc1ccccc1)[C@@H]1OC(=O)C[C@@H]1OC", "16.9 µM"],
  ["CO[C@H]1CC(=O)O[C@H]1[C@H](O)[C@H](O)COC(=O)c1ccccc1", "14.1 µM"]
]}
